Below, each entry is listed with its recorded IC50.
Target desc: Acetylcholinesterase (Electrophorus electricus)
Please state the figure in µM; there is no need to write the unit.

# Molecular string, Target desc, Unit name, IC50
rows = [
    ("O=C(C1=C(O)/C(=C/c2cccc(Cc3ccccc3)c2)CCC1)c1ccccc1", "Acetylcholinesterase (Electrophorus electricus)", "µM", 7.8),
]

Next item in the queue.
Identify measured IC50 associated with O=C(C1=C(O)/C(=C/c2ccc(Cl)cc2Cl)CCC1)c1ccccc1
5.4

---

Target desc: Acetylcholinesterase (Electrophorus electricus) (UniProt O42275)
Sequence (O42275 24-633 limits assumed): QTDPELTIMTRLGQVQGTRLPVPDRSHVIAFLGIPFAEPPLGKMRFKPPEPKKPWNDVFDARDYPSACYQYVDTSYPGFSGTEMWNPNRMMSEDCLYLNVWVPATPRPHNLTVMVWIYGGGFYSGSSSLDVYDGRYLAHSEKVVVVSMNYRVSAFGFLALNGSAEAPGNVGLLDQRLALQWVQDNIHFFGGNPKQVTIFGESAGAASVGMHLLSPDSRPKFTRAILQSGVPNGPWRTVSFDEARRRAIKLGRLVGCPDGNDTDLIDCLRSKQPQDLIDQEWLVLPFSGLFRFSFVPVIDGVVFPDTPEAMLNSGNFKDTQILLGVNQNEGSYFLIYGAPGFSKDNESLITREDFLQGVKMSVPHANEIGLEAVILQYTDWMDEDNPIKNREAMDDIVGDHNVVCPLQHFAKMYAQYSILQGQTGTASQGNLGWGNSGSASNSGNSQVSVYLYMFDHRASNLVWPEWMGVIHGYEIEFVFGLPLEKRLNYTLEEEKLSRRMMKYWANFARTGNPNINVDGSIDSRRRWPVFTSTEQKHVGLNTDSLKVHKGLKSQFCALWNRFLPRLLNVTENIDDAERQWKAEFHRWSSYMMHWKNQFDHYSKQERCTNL
Test summary: Inhibition of electric eel AChE preincubated for 15 mins at 10 uM followed by addition of acetylthiocholine iodide as substrate measured after 30 mins by Ellman's microplate assay
Activity calls are given as the source filed them. No cut-off for these calls is given here.
Measure name: inhibition

Here is how some compounds turned out for inhibition.
# Molecular string, Target desc, Test value
measured = [
    ("COc1cccc(/C=C2\\CCCC(C(=O)c3ccccc3)=C2O)c1OC", "Acetylcholinesterase (Electrophorus electricus) (UniProt O42275)", "inactive"),
    ("O=C(C1=C(O)/C(=C/c2ccc(Br)c(Br)c2)CCC1)c1ccccc1", "Acetylcholinesterase (Electrophorus electricus) (UniProt O42275)", "Active"),
    ("COc1cccc(/C=C2\\CCCC(C(=O)c3ccccc3)=C2O)c1", "Acetylcholinesterase (Electrophorus electricus) (UniProt O42275)", "Active"),
    ("O=C(C1=C(O)/C(=C/c2cccc(Cl)c2Cl)CCC1)c1ccccc1", "Acetylcholinesterase (Electrophorus electricus) (UniProt O42275)", "Active"),
    ("O=C(C1=C(O)/C(=C/c2cccc(O)c2)CCC1)c1ccccc1", "Acetylcholinesterase (Electrophorus electricus) (UniProt O42275)", "inactive"),
]

Next item in the queue.
State the measured inhibition (Acetylcholinesterase (Electrophorus electricus) (UniProt O42275)) of Cc1ccc(/C=C2\CCCC(C(=O)c3ccccc3)=C2O)s1
Active

---

Target desc: Acetylcholinesterase (Electrophorus electricus)
// class assignment uses IC50 with these ranges: low = under 6 µM, middle = from 6 µM up to 8 µM, high = 8 µM and over

Would you mind sorting O=C(C1=C(O)/C(=C/c2cccc(OCCN3CCCC3)c2)CCC1)c1ccccc1 into the appropriate category?
low

---

Target desc: Acetylcholinesterase (Electrophorus electricus)
Test summary: Inhibition of electric eel AChE preincubated for 15 mins at 10 uM followed by addition of acetylthiocholine iodide as substrate measured after 30 mins by Ellman's microplate assay
Activity calls are given as the source filed them. The calls are words filed in the database; no cut-off is given here.
Choose the fitting class; nothing outside y for active, n for inactive is accepted.

The examples below pair each entry with its known result.
# Molecular string, Answer label
measured = [
    ("O=C(C1=C(O)/C(=C/c2cccc3ccccc23)CCC1)c1ccccc1", "y"),
    ("O=C(C1=C(O)/C(=C/c2cccc(Cc3ccccc3)c2)CCC1)c1ccccc1", "y"),
    ("O=C(C1=C(O)/C(=C/c2cccc(F)c2)CCC1)c1ccccc1", "y"),
]

Please share the test call associated with O=C(C1=C(O)/C(=C/c2ccc(F)cc2)CCC1)c1ccccc1 .
y

---

Target desc: UniProt O42275
Measure name: pKi
Please keep in mind that pKi is minus log10 of the molar concentration; only the number is needed.

State the measured pKi (UniProt O42275) of O=C(C1=C(O)/C(=C/c2ccc(OCCN3CCCCC3)cc2)CCC1)c1ccccc1
5.72

---

Target desc: Cholinesterase (Equus caballus) (UniProt P81908)
Sequence (P81908 whole entry): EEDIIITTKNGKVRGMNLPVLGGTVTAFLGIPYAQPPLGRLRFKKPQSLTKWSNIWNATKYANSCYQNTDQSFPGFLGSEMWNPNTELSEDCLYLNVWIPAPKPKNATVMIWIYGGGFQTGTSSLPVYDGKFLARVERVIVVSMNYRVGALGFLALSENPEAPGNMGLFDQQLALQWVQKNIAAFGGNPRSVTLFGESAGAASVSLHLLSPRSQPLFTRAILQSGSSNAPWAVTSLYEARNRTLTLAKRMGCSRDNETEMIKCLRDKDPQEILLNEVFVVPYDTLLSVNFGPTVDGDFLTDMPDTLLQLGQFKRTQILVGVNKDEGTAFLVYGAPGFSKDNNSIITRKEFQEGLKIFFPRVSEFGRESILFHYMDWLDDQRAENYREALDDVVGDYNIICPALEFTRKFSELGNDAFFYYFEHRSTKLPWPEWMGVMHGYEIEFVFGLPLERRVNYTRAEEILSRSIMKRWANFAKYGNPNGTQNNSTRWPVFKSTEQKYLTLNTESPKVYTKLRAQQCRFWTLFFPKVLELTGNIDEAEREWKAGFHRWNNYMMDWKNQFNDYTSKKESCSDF
Test summary: Inhibition of equine serum BChE preincubated for 15 mins at 10 uM followed by addition of S-butyrylthiocholine iodide as substrate measured after 30 mins by Ellman's microplate assay
Active and inactive are the calls of the source. No cut-off for these calls is given here.
Choose the fitting class; nothing outside active, inactive is accepted.

The examples below pair each entry with its known result.
# Molecular string, Answer label
measured = [
    ("COc1ccccc1/C=C1\\CCCC(C(=O)c2ccccc2)=C1O", "inactive"),
    ("O=C(C1=C(O)/C(=C/c2ccc(Cl)cc2Cl)CCC1)c1ccccc1", "inactive"),
    ("O=C(C1=C(O)/C(=C/c2cccc(Cc3ccccc3)c2)CCC1)c1ccccc1", "inactive"),
    ("O=C(C1=C(O)/C(=C/c2ccccc2Br)CCC1)c1ccccc1", "inactive"),
    ("O=C(C1=C(O)/C(=C/c2ccc3ccccc3c2)CCC1)c1ccccc1", "inactive"),
]

Please share the test call associated with O=C(C1=C(O)/C(=C/c2ccccc2Cl)CCC1)c1ccccc1 .
inactive

Please share the test call associated with O=C(C1=C(O)/C(=C/c2ccc(F)c(F)c2)CCC1)c1ccccc1 .
inactive

Please share the test call associated with COc1cc(/C=C2\CCCC(C(=O)c3ccccc3)=C2O)ccc1O .
inactive

Please share the test call associated with O=C(C1=C(O)/C(=C/c2ccc(O)cc2)CCC1)c1ccccc1 .
inactive

---

Target desc: UniProt O42275
Test summary: Inhibition of electric eel AChE preincubated for 15 mins at 10 uM followed by addition of acetylthiocholine iodide as substrate measured after 30 mins by Ellman's microplate assay
The source made the active and inactive calls. No cut-off for these calls is given here.
Choose the fitting class; nothing outside yes (1) (active), no (0) (inactive) is accepted.

# Molecular string, Answer label
measured = [
    ("COc1ccccc1/C=C1\\CCCC(C(=O)c2ccccc2)=C1O", "no (0)"),
    ("O=C(C1=C(O)/C(=C/c2ccc(Br)cc2)CCC1)c1ccccc1", "yes (1)"),
    ("COc1ccc(OC)c(/C=C2\\CCCC(C(=O)c3ccccc3)=C2O)c1", "no (0)"),
]

// switching to the query compound
Please share the test call associated with COc1ccc(/C=C2\CCCC(C(=O)c3ccccc3)=C2O)c(OC)c1OC .
no (0)

---

Hi! I'm sharing some pIC50 results obtained with UniProt:O42275.
Please keep in mind that pIC50 is minus log10 of the molar concentration; only the number is needed.

Here is how some compounds turned out for pIC50.
# Molecular string, Test value
measured = [
    ("COc1cccc(/C=C2\\CCCC(C(=O)c3ccccc3)=C2O)c1", 5.13),
    ("O=C(C1=C(O)/C(=C/c2ccccc2Cl)CCC1)c1ccccc1", 5.09),
]

State the measured pIC50 (UniProt:O42275) of O=C(C1=C(O)/C(=C/c2ccc(Cc3ccccc3)cc2)CCC1)c1ccccc1
5.08

---

Target desc: Acetylcholinesterase (Electrophorus electricus)
Test summary: Inhibition of electric eel AChE preincubated for 15 mins at 10 uM followed by addition of acetylthiocholine iodide as substrate measured after 30 mins by Ellman's microplate assay
Calls of active or inactive are those of the source. The calls are words filed in the database; no cut-off is given here.
Measure name: inhibition

Here is how some molecules turned out for inhibition.
# Molecular string, Target desc, inhibition
data = [
    ("O=C(C1=C(O)/C(=C/c2ccc(O)c(O)c2)CCC1)c1ccccc1", "Acetylcholinesterase (Electrophorus electricus)", "inactive"),
    ("O=C(C1=C(O)/C(=C/c2ccc(OCCN3CCCCC3)cc2)CCC1)c1ccccc1", "Acetylcholinesterase (Electrophorus electricus)", "Active"),
    ("O=C(C1=C(O)/C(=C/c2cccc(OCCN3CCCC3)c2)CCC1)c1ccccc1", "Acetylcholinesterase (Electrophorus electricus)", "Active"),
    ("COc1cc(/C=C2\\CCCC(C(=O)c3ccccc3)=C2O)cc(OC)c1OC", "Acetylcholinesterase (Electrophorus electricus)", "inactive"),
]

Next item in the queue.
Identify measured inhibition associated with O=C(C1=C(O)/C(=C/c2ccccc2Br)CCC1)c1ccccc1
Active

---

Target desc: Acetylcholinesterase (Electrophorus electricus, UniProt O42275)
Sequence (O42275 whole entry): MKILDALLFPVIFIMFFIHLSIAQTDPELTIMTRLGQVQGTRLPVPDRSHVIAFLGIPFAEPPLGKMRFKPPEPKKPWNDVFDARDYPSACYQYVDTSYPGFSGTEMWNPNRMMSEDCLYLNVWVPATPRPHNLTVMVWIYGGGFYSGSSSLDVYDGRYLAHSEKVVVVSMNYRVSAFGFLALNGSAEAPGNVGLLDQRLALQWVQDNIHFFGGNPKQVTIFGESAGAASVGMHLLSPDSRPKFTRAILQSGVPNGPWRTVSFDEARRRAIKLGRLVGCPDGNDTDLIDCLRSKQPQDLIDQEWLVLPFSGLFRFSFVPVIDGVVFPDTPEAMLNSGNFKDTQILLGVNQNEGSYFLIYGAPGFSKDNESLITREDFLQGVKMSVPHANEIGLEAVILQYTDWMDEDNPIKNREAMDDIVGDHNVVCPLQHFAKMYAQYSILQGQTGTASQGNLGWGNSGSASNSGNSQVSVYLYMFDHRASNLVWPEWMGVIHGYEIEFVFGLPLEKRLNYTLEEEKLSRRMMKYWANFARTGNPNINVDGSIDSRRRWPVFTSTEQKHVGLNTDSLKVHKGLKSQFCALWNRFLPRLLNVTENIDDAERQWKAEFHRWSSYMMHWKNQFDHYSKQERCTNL
Please assign rule not met whenever IC50 is at or above 8 µM, and rule met whenever it is below.

# Molecular string, Answer label
measured = [
    ("O=C(C1=C(O)/C(=C/c2ccc(OCCN3CCCC3)cc2)CCC1)c1ccccc1", "rule met"),
    ("O=C(C1=C(O)/C(=C/c2ccc(Cl)cc2)CCC1)c1ccccc1", "rule met"),
    ("O=C(C1=C(O)/C(=C/c2ccccc2Br)CCC1)c1ccccc1", "rule not met"),
    ("O=C(C1=C(O)/C(=C/c2cccs2)CCC1)c1ccccc1", "rule met"),
    ("Cc1cccc(/C=C2\\CCCC(C(=O)c3ccccc3)=C2O)c1", "rule not met"),
]

// switching to the query molecule
Please check: IC50 for Cc1ccc(/C=C2\CCCC(C(=O)c3ccccc3)=C2O)cc1 , strictly under 8 µM or not?
rule not met

---

Target desc: Acetylcholinesterase (Electrophorus electricus) (UniProt O42275)
Test summary: Inhibition of electric eel AChE preincubated for 15 mins at 10 uM followed by addition of acetylthiocholine iodide as substrate measured after 30 mins by Ellman's microplate assay
Calls of active or inactive are those of the source. No cut-off for these calls is given here.
Choose the fitting class; nothing outside active, inactive is accepted.

The examples below pair each entry with its known result.
# Molecular string, Target desc, Answer label
data = [
    ("O=C(C1=C(O)/C(=C/c2cccs2)CCC1)c1ccccc1", "Acetylcholinesterase (Electrophorus electricus) (UniProt O42275)", "active"),
    ("COc1ccc(/C=C2\\CCCC(C(=O)c3ccccc3)=C2O)cc1", "Acetylcholinesterase (Electrophorus electricus) (UniProt O42275)", "inactive"),
    ("O=C(C1=C(O)/C(=C/c2ccc(F)c(F)c2)CCC1)c1ccccc1", "Acetylcholinesterase (Electrophorus electricus) (UniProt O42275)", "active"),
    ("Cc1ccc(/C=C2\\CCCC(C(=O)c3ccccc3)=C2O)cc1", "Acetylcholinesterase (Electrophorus electricus) (UniProt O42275)", "active"),
    ("O=C(C1=C(O)/C(=C/c2ccc(O)c(Br)c2)CCC1)c1ccccc1", "Acetylcholinesterase (Electrophorus electricus) (UniProt O42275)", "inactive"),
    ("O=C(C1=C(O)/C(=C/c2ccc(OCCN3CCCC3)cc2)CCC1)c1ccccc1", "Acetylcholinesterase (Electrophorus electricus) (UniProt O42275)", "active"),
]

// switching to the query molecule
Please share the test call associated with O=C(C1=C(O)/C(=C/c2ccccc2Cl)CCC1)c1ccccc1 .
inactive
